- assay.method.text: Relaxivity measurements at 1.41T and 37 °C
- Assay type: physicochemical
- condition.summary: Human Plasma (1.4T)
r1 relaxivity for assorted molecules
Unit mM⁻¹ s⁻¹ implied. Number only.

CC[C@@H]1CN(CC(=O)[O-])[C@H](CC)CN(CC(=O)[O-])[C@H](CC)CN(CC(=O)[O-])[C@H](CC)CN1CC(=O)[O-].[Gd+3] [[Gd(R)L2A]^−] = 4.6
CC[C@H]1CN(CC(=O)[O-])[C@@H](CC)CN(CC(=O)[O-])[C@@H](CC)CN(CC(=O)[O-])[C@@H](CC)CN1CC(=O)[O-].[Gd+3] [[GdL2B]^−] = 4.9

Ask | Which r1 relaxivity value belongs to C[C@H]1CN(CC(=O)[O-])[C@@H](C)CN(CC(=O)[O-])[C@@H](C)CN(CC(=O)[O-])[C@@H](C)CN1CC(=O)[O-].[Gd+3] [[GdL1]^−] ?
Reply | 4.6

Ask | Thanks! And O=C([O-])CN1CCN(CC(=O)[O-])CCN(CC(=O)[O-])CCN(CC(=O)[O-])CC1.[Gd+3] [[GdDOTA]^−, reference compound] ?
Reply | 4.0

* * *

- assay.method.text: 17O NMR water exchange (residence time of water co-ligand)
- Format: physicochemical
- condition.summary: 17O NMR at 11.7T
Would you please tag the item Y when its ΔH^‡, enthalpy change of activation of water exchange is 8 kcal/mol or above, and N when it is below?

NCCCC[C@H]1CN(CC(=O)[O-])[C@@H](CCCCN)CN(CC(=O)[O-])[C@@H](CCCCN)CN(CC(=O)[O-])[C@@H](CCCCN)CN1CC(=O)[O-].[Gd+3] [[GdL5]^−] = N
CC[C@@H]1CN(CC(=O)[O-])[C@H](CC)CN(CC(=O)[O-])[C@H](CC)CN(CC(=O)[O-])[C@H](CC)CN1CC(=O)[O-].[Gd+3] [[Gd(R)L2B]^−] = N
C[C@H]1CN(CC(=O)[O-])[C@@H](C)CN(CC(=O)[O-])[C@@H](C)CN(CC(=O)[O-])[C@@H](C)CN1CC(=O)[O-].[Gd+3] [[GdL1]^−] = N

Next:
Ask | Has CC[C@H]1CN(CC(=O)[O-])[C@@H](CC)CN(CC(=O)[O-])[C@@H](CC)CN(CC(=O)[O-])[C@@H](CC)CN1CC(=O)[O-].[Gd+3] [[GdL2A]^−] a recorded ΔH^‡, enthalpy change of activation of water exchange greater than or equal to 8 kcal/mol?
Reply | Y

* * *

- assay.method.text: Ex vivo biodistribution 2 h post injection after MRI study (ICP-MS)
- Type: in vivo, C57/Bl6 mice
- condition.summary: 0.1 mmol per kg i.v.
Gd concentration in gall bladder for assorted molecules
Unit nmol Gd per gram tissue implied. Number only.

CC[C@H]1CN(CC(=O)[O-])[C@@H](CC)CN(CC(=O)[O-])[C@@H](CC)CN(CC(=O)[O-])[C@@H](CC)CN1CC(=O)[O-].[Gd+3] [[GdL2A]^−] = 854

Ask | Which Gd concentration in gall bladder value belongs to C[C@H]1CN(CC(=O)[O-])[C@@H](C)CN(CC(=O)[O-])[C@@H](C)CN(CC(=O)[O-])[C@@H](C)CN1CC(=O)[O-].[Gd+3] [[GdL1]^−] ?
Reply | 139.87

Ask | Thanks! And CC[C@H]1CN(CC(=O)[O-])[C@@H](CC)CN(CC(=O)[O-])[C@@H](CC)CN(CC(=O)[O-])[C@@H](CC)CN1CC(=O)[O-].[Gd+3] [[GdL2B]^−] ?
Reply | 1066

Ask | Thanks! And NCCCC[C@H]1CN(CC(=O)[O-])[C@@H](CCCCN)CN(CC(=O)[O-])[C@@H](CCCCN)CN(CC(=O)[O-])[C@@H](CCCCN)CN1CC(=O)[O-].[Gd+3] [[GdL5]^−] ?
Reply | 60.17

* * *

- assay.method.text: Relaxivity measurements at 1.41T and 37 °C
- Assay type: physicochemical
- condition.summary: 4.5% w/v HSA (1.4T)
- Protocol: Relaxivity measurements were performed on a Bruker mq60 Minispec at 1.41T and 37 °C. Longitudinal (T1) relaxation times were measured using an inversion recovery experiment with 10 inversion times of duration ranging between 0.05 × T1 and 5 × T1. Transverse (T2) relaxation times were measured using a CPMG pulse sequence. Relaxivity (r1, r2) was determined from the slope of a plot of 1/T1,2 vs [Gd] for at least 4 concentrations of Gd(III) (data shown in Supplementary Figs. 93–110). […]
value.kind: r1 relaxivity (mM⁻¹ s⁻¹)
Unit mM⁻¹ s⁻¹ implied. Number only.

CC[C@@H]1CN(CC(=O)[O-])[C@H](CC)CN(CC(=O)[O-])[C@H](CC)CN(CC(=O)[O-])[C@H](CC)CN1CC(=O)[O-].[Gd+3] [[Gd(R)L2B]^−] = 4.8
NCCCC[C@H]1CN(CC(=O)[O-])[C@@H](CCCCN)CN(CC(=O)[O-])[C@@H](CCCCN)CN(CC(=O)[O-])[C@@H](CCCCN)CN1CC(=O)[O-].[Gd+3] [[GdL5]^−] = 5.1

Ask | Which r1 relaxivity value belongs to CC[C@H]1CN(CC(=O)[O-])[C@@H](CC)CN(CC(=O)[O-])[C@@H](CC)CN(CC(=O)[O-])[C@@H](CC)CN1CC(=O)[O-].[Gd+3] [[GdL2A]^−] ?
Reply | 4.7

* * *

- assay.method.text: 17O NMR water exchange (residence time of water co-ligand)
- Assay type: physicochemical
- condition.summary: 310 K, 17O NMR at 11.7T, q = 1 assumed
value.kind: τM^310K, mean residence time of the water co-ligand at 310 K (ns)
Unit ns implied. Number only.

Guide cases for τM^310K, mean residence time of the water co-ligand at 310 K, answers given:
CC[C@H]1CN(CC(=O)[O-])[C@@H](CC)CN(CC(=O)[O-])[C@@H](CC)CN(CC(=O)[O-])[C@@H](CC)CN1CC(=O)[O-].[Gd+3] [[GdL2A]^−] = 6.6
CC[C@@H]1CN(CC(=O)[O-])[C@H](CC)CN(CC(=O)[O-])[C@H](CC)CN(CC(=O)[O-])[C@H](CC)CN1CC(=O)[O-].[Gd+3] [[Gd(R)L2B]^−] = 2.9
NCCCC[C@H]1CN(CC(=O)[O-])[C@@H](CCCCN)CN(CC(=O)[O-])[C@@H](CCCCN)CN(CC(=O)[O-])[C@@H](CCCCN)CN1CC(=O)[O-].[Gd+3] [[GdL5]^−] = 16

Ask | Which τM^310K, mean residence time of the water co-ligand at 310 K value belongs to C[C@H]1CN(CC(=O)[O-])[C@@H](C)CN(CC(=O)[O-])[C@@H](C)CN(CC(=O)[O-])[C@@H](C)CN1CC(=O)[O-].[Gd+3] [[GdL1]^−] ?
Reply | 13

Ask | Thanks! And CC[C@@H]1CN(CC(=O)[O-])[C@H](CC)CN(CC(=O)[O-])[C@H](CC)CN(CC(=O)[O-])[C@H](CC)CN1CC(=O)[O-].[Gd+3] [[Gd(R)L2A]^−] ?
Reply | 8.1

Ask | Thanks! And CC[C@H]1CN(CC(=O)[O-])[C@@H](CC)CN(CC(=O)[O-])[C@@H](CC)CN(CC(=O)[O-])[C@@H](CC)CN1CC(=O)[O-].[Gd+3] [[GdL2B]^−] ?
Reply | 1.1

* * *

- assay.method.text: Relaxivity measurements at 1.41T and 37 °C
- Assay type: physicochemical
- condition.summary: Water (1.4T)
value.kind: r1 relaxivity (mM⁻¹ s⁻¹)
Unit mM⁻¹ s⁻¹ implied. Number only.

C[C@H]1CN(CC(=O)[O-])[C@@H](C)CN(CC(=O)[O-])[C@@H](C)CN(CC(=O)[O-])[C@@H](C)CN1CC(=O)[O-].[Gd+3] [[GdL1]^−] = 4.1
CC[C@@H]1CN(CC(=O)[O-])[C@H](CC)CN(CC(=O)[O-])[C@H](CC)CN(CC(=O)[O-])[C@H](CC)CN1CC(=O)[O-].[Gd+3] [[Gd(R)L2A]^−] = 3.9
NCCCC[C@H]1CN(CC(=O)[O-])[C@@H](CCCCN)CN(CC(=O)[O-])[C@@H](CCCCN)CN(CC(=O)[O-])[C@@H](CCCCN)CN1CC(=O)[O-].[Gd+3] [[GdL5]^−] = 4.1

Ask | Which r1 relaxivity value belongs to CC[C@H]1CN(CC(=O)[O-])[C@@H](CC)CN(CC(=O)[O-])[C@@H](CC)CN(CC(=O)[O-])[C@@H](CC)CN1CC(=O)[O-].[Gd+3] [[GdL2A]^−] ?
Reply | 4.2

Ask | Thanks! And CC[C@@H]1CN(CC(=O)[O-])[C@H](CC)CN(CC(=O)[O-])[C@H](CC)CN(CC(=O)[O-])[C@H](CC)CN1CC(=O)[O-].[Gd+3] [[Gd(R)L2B]^−] ?
Reply | 3.9

Ask | Thanks! And CC[C@H]1CN(CC(=O)[O-])[C@@H](CC)CN(CC(=O)[O-])[C@@H](CC)CN(CC(=O)[O-])[C@@H](CC)CN1CC(=O)[O-].[Gd+3] [[GdL2B]^−] ?
Reply | 3.9

Ask | Thanks! And O=C([O-])CN1CCN(CC(=O)[O-])CCN(CC(=O)[O-])CCN(CC(=O)[O-])CC1.[Gd+3] [[GdDOTA]^−, reference compound] ?
Reply | 3.2
